- experiment.description: nuclear p53 accumulation, HPV+ cells – imaging, p53-positive nuclei imaging, 24 h, 48 h (AID 1508601)
- study.conditions: 24/48 h, measured here: cell number at 48 h, concentration not given here
In all, about 5,700 compounds went through this assay and about 85 (1%) were called active. This excerpt belongs to a sample that is enriched for actives.
quantity.kind: nuclei count, normalised (%)

| compound | quantity.kind | endpoint.result |
| --- | --- | --- |
| COc1cccc(CN2CCN(c3ccc4cccc(OC)c4n3)CC2)c1 | nuclei count, normalised | 114 |
| CCCCCC(=O)/C=C/[C@H]1[C@H](O)CC(=O)[C@@H]1CCCCCCC(=O)O | nuclei count, normalised | 107 |
| CC(C)[C@H](C(=O)Nc1ccc(C(=O)NO)cc1)c1ccccc1 | nuclei count, normalised | 65.6 |
| CC/C=C\C/C=C\C/C=C\C/C=C\C/C=C\CCCCCC(=O)O | nuclei count, normalised | 102 |
| CCCCC[C@@](C)(O)/C=C/[C@H]1[C@H](O)CC(=O)[C@@H]1C/C=C\CCCC(=O)O | nuclei count, normalised | 105 |
| CC(C)CC1(CO)CCCN(C(=O)c2cccc(C#CC(C)(C)O)c2)C1 (stereo not drawn) | nuclei count, normalised | 100 |
| CCCCCCCCCCCCCCCCOC[C@H](CO)OC(C)=O | nuclei count, normalised | 102 |
| CC(/C=C/C(=O)NO)=C\[C@@H](C)C(=O)c1ccc(N(C)C)cc1 | nuclei count, normalised | 27.6 |
| CCCCC/C=C\C/C=C\C/C=C\CCCCCCC(=O)OC | nuclei count, normalised | 108 |
| CN(C)c1ccc(C(=O)NCCCCCC(=O)NO)cc1 | nuclei count, normalised | 106 |
| OCCCCCNc1nccc(-c2cnn(-c3ccccc3F)c2)n1 | nuclei count, normalised | 73.8 |
| O=C(OC[C@@H]1O[C@H]1c1ccccc1)Oc1ccc([N+](=O)[O-])cc1 | nuclei count, normalised | 105 |
| CCN(CC)C(=O)N1CCN(C)CC1 | nuclei count, normalised | 102 |
| O=C(O)CCC/C=C\C[C@@H]1[C@@H](/C=C/[C@H](O)CCc2ccccc2)[C@H](O)C[C@@H]1O | nuclei count, normalised | 108 |
| CCCCc1ccc(N=CNO)c(C)c1 | nuclei count, normalised | 114 |
| O=C(O)CCC/C=C\C[C@H]1C(=O)C[C@@H](O)[C@@H]1/C=C/[C@@H](O)CCc1ccccc1 | nuclei count, normalised | 107 |
| CCCCC/C=C\C/C=C\CCCC/C=C\CCCC(=O)O | nuclei count, normalised | 96 |
| CCCCC[C@H](O)/C=C/[C@@H]1[C@@H](C/C=C\CCCC(=O)NCC)[C@@H](O)C[C@H]1O | nuclei count, normalised | 102 |
| Cc1ccc(NC(=O)CCCCCC(=O)Nc2ccccc2N)cc1 | nuclei count, normalised | 104 |
| Nc1ccccc1NC(=O)c1ccc(CNC(=O)OCc2cccnc2)cc1 | nuclei count, normalised | 103 |
| CCCCC/C=C/C/C=C/CCCCCCCC(=O)O | nuclei count, normalised | 108 |
| c1ccc(C(OC2CCN(CCCc3nn[nH]n3)CC2)c2ccccc2)cc1 | nuclei count, normalised | 102 |
| CC(=O)Nc1ccc(S(=O)(=O)Nc2ccc([N+](=O)[O-])cc2)cc1 | nuclei count, normalised | 92.6 |
